- measurement.protocol: Quantitative highthroughput screen to assess conditional lethalithy of SEM cells grown in RPMI1640 with unreated serum (RPMI+s) (AID 1963883); further: nearly all actives have a fitted effect of over 35% in size;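 on viability: 100% = DMSO wells and 0% = empty wells without cells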
- condition.context: SEM B-ALL cells, CellTiter-Glo viability, 48 h; series mostly up to 45.8 µM
Inconclusive results are not listed. Active and inactive are the calls of the source. The call rests on the fitted dose curve; in most records, active means well fitted cell-killing curve with a large enough effect; inconclusive means small, poorly fitted or top-dose-only effect, or effect the other way; inactive means no such curve, though single readings can be large or run the other way.
Classes used: true (1) for active, false (0) for inactive

| compound | answer.label |
| --- | --- |
| CCn1cc(C(=O)O)c(=O)c2cc(F)c(N3CCNC(C)C3)c(F)c21 (centres undefined) | false (0) |
| C[C@]12CC[C@H](O)CC1=CC[C@@H]1[C@H]2CC[C@]2(C)C(c3cccnc3)=CC[C@H]12 | false (0) |
| O=C(Nc1ccc(OC(F)(F)F)cc1)c1sccc1NCc1ccnc2ccccc12 | true (1) |
| O=C(O)Cn1nnc(-c2cc(N3CCC(Oc4cc(F)ccc4Br)CC3)no2)n1 | false (0) |
| COCCCN1CCC(NC(=O)c2cc(Cl)c(N)c3c2OCC3)CC1 | false (0) |
| CN1CCCC(n2nc(Cc3ccc(Cl)cc3)c3ccccc3c2=O)CC1 (centres undefined) | false (0) |
| CC(C)(OCc1nn(Cc2ccccc2)c2ccccc12)C(=O)O | false (0) |
| CNC(=O)c1cccc(-c2ccc3c(N4CCOC[C@H]4C)nc(N4CCOC[C@H]4C)nc3n2)c1 | true (1) |
| Nc1cc(C(F)(F)F)c(-c2cc(N3CCOCC3)nc(N3CCOCC3)n2)cn1 | true (1) |
| CC(=O)OCCN1C(=O)c2c(C)nc3ccc(S(=O)(=O)N4CCOCC4)cc3c2C1=O | false (0) |
| CN(C)Cc1cccc(N=C(c2ccccc2)c2c(O)[nH]c3cc(C(=O)N(C)C)ccc23)c1 | true (1) |
| COc1ccc2c(c1)c(CC(=O)O)c(C)n2C(=O)c1ccc(Cl)cc1 | false (0) |
| Cn1cc(-c2ccc3nnc(C(F)(F)c4ccc5ncccc5c4)n3n2)cn1 | false (0) |
| Cc1cc(O)c2c(c1)C(=O)c1cc(O)cc(O)c1C2=O | false (0) |
| CN[C@H]1[C@@H](O[C@@H]2[C@H](O[C@@H]3[C@@H](O)[C@@H](O)[C@@H](N=C(N)N)[C@@H](O)[C@@H]3N=C(N)N)O[C@H](C)[C@@]2(O)C=O)O[C@@H](CO)[C@@H](O)[C@H]1O | false (0) |
| COc1ccccc1OCCNCC(O)COc1cccc2[nH]c3ccccc3c12 (centres undefined) | false (0) |
| CCCc1nc(C(C)(C)O)c(C(=O)O)n1Cc1ccc(-c2ccccc2-c2nn[nH]n2)cc1 | false (0) |
| S=C(NCc1ccc2c(c1)OCO2)N1CCN(c2ncnc3c2oc2ccccc23)CC1 | true (1) |
| COc1ccc(C2(C#N)CCC(C(=O)O)CC2)cc1OC1CCCC1 (centres undefined) | false (0) |
